B1: Pituitary-specific positive transcription factor 1, residues 130 to 198; numbered along this chain, P28069 (parent)
chain: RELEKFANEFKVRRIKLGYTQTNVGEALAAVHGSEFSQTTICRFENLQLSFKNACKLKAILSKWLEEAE

variants of: B1; assay: abundance fitness (aPCA) (normalised: wild type 0, dead -1); higher = more abundant; growth selection in yeast, the domain comes from the species named; conditions: Homo sapiens
value-type: abundance fitness
Numbers only.

Some variants with known abundance fitness results, for comparison:
{"item-sequence": "RELEKFANEFKVRRIKLGYTQTNVGEALAAVHGSEFSQTTICRFENLQLSFKNACKLKAILSYWLEEAE [K63Y]", "abundance fitness": -0.508}
{"item-sequence": "RELEKFANEFKVRRIKLSYTQTNVGEALAAVHGSEFSQTTICRFENLQLSFKNACKLKAILSKWLEEAE [G18S]", "abundance fitness": -0.838}

Would you mind giving abundance fitness for every variant in the list below?
1. RELEKFANEFKVRRIKLGYTQTNVGEALANVHGSEFSQTTICRFENLQLSFKNACKLKAILSKWLEEAE [A30N]
2. RELEKFANEFKVRRIKLGYTQTNVGEALAAVHGSEFSQTTICRFENLQLSFKNACKLKAILSKFLEEAE [W64F]
3. LELEKFANEFKVRRIKLGYTQTNVGEALAAVHGSEFSQTTICRFENLQLSFKNACKLKAILSKWLEEAE [R1L]
4. RELEKFANEFKVRRIKLGYTQTNVGEALAAVHGSAFSQTTICRFENLQLSFKNACKLKAILSKWLEEAE [E35A]
5. RELEKFANEFKVRRIKLGYTQTNVGEALAAVHGSEFSQTTICRFENLQLSFKNACKLKAILSKWLDEAE [E66D]

-0.219
-0.398
-0.306
-0.097
-0.037

Could you tell me abundance fitness for each of these variants? They are listed below.
1. RELEKFMNEFKVRRIKLGYTQTNVGEALAAVHGSEFSQTTICRFENLQLSFKNACKLKAILSKWLEEAE [A7M]
2. RELEKFANEFKVRRIKLGYTQTNVGEALAAVHGSLFSQTTICRFENLQLSFKNACKLKAILSKWLEEAE [E35L]
3. RELEKFANEFKVRRIKLGYPQTNVGEALAAVHGSEFSQTTICRFENLQLSFKNACKLKAILSKWLEEAE [T20P]
4. RELEKFANEFKVRRIKLGYTQTNVGEALAAVHGSEFSQTTIYRFENLQLSFKNACKLKAILSKWLEEAE [C42Y]
5. RELEKFANEFKVRRIKLGYTQTNVGEALAAVHGSEFSQTTICRFENLQLSFKNACKLKAILSKCLEEAE [W64C]
6. RELEKFANEFKVRRIKLGYTDTNVGEALAAVHGSEFSQTTICRFENLQLSFKNACKLKAILSKWLEEAE [Q21D]
7. RELEKFANEFKVRRIKLGYTQTNVGEALAAVHGSEFSQTTICRFENLQGSFKNACKLKAILSKWLEEAE [L49G]

[-0.551, -0.222, -0.942, -0.243, -0.164, -0.674, -0.632]

Dear colleague, could you send me abundance fitness for each of the items below? Thanks.
1. RELEKFANEFKVRRIKLGYTQTNVGEALAAVHGSEFSQTTICRFENLQLSFVNACKLKAILSKWLEEAE [K52V]
2. RELEKFANEFKVRRIKLGYTQTNVGEALAAVHGSEFSQTTICRFENLQLSFKNACMLKAILSKWLEEAE [K56M]

1. 0.073
2. -0.268

The following variants each have a reported value; give each one's abundance fitness.
1. RELEKFANEFKVRRIKLGYTQTNVGEADAAVHGSEFSQTTICRFENLQLSFKNACKLKAILSKWLEEAE [L28D]
2. RELEKFANEFKVRRIKLGYTQTNVGEALAAVHGSEFSQTTICRFENLQLSFKNACKLKAILWKWLEEAE [S62W]
3. RELEKFANEFKVRRIKLGYTQTNVGEALAAVHGSEFSQTTICRFEKLQLSFKNACKLKAILSKWLEEAE [N46K]

[-0.162, -0.009, -0.266]

Batch request: abundance fitness per item, same order as input.
1. RETEKFANEFKVRRIKLGYTQTNVGEALAAVHGSEFSQTTICRFENLQLSFKNACKLKAILSKWLEEAE [L3T]
2. RELEKFANEFKVRRIKLGYTQTNVGEALAAVHGSEFSQTTICRFEGLQLSFKNACKLKAILSKWLEEAE [N46G]

1: -0.867; 2: -0.311

Each variant below has a reported value. Please supply its abundance fitness.
1. RELEKFANEFKVRVIKLGYTQTNVGEALAAVHGSEFSQTTICRFENLQLSFKNACKLKAILSKWLEEAE [R14V]
2. RELEKFANEFKVRRIKLGYTQTNVGEALAAVHGSEFSQTTICRFENLQLSFKNACKLKAILPKWLEEAE [S62P]

-0.712
-0.909

For the 6 variants below, give their abundance fitness values.
1. RELEKFANEFKVRRIKLGYTQTNVGEALTAVHGSEFSQTTICRFENLQLSFKNACKLKAILSKWLEEAE [A29T]
2. RELEKFANEFKVRRIKLGYTQTNVGEALAAVHGSEFSQTTICRFENLQLSFKNACKLKAIPSKWLEEAE [L61P]
3. RELEKFANEFKVRRIKLGYTQTNVGEALAAVHGPEFSQTTICRFENLQLSFKNACKLKAILSKWLEEAE [S34P]
4. RELEKFANEFKVRRIKLGYTQTNVGEALAAVHGSEFSQTTICRFENLQLMFKNACKLKAILSKWLEEAE [S50M]
5. RELEKFANEFKVRRIKLGYTQTNVGEALAAVHGSEFSQTTICRFENLQLSFKNACKLKAMLSKWLEEAE [I60M]
6. RELEKFANEFKVRRIKLGYTQTNVGEALAAVHGSEFSQTTICRFENLQLSFKNACKLKAILSKWLEEAP [E69P]

1. 0.063
2. -0.728
3. 0.133
4. -0.766
5. -0.239
6. -0.433

For each listed entry, give its abundance fitness.
1. RELEKFANEFKVRRIKLGYTQTNVGEALAAVHGAEFSQTTICRFENLQLSFKNACKLKAILSKWLEEAE [S34A]
2. RELEKFANEFKVRRIKLGYTQTNVGEAPAAVHGSEFSQTTICRFENLQLSFKNACKLKAILSKWLEEAE [L28P]
3. RELEKKANEFKVRRIKLGYTQTNVGEALAAVHGSEFSQTTICRFENLQLSFKNACKLKAILSKWLEEAE [F6K]

-0.079
-0.853
-0.756

The measurements presented in this section are drawn from the Human Domainome abundance scans (Beltran et al. 2025).
